System: MCF7
ASSAY_SUMMARY: Cytotoxicity against human MCF7 cells assessed as growth inhibition after 72 hrs by MTT assay
Format: functional, cell-based
CONDITION: MCF7, 72 h
pIC50: −log10 of the molar value.
pIC50 values, listed per item

COMPOUND | pIC50
COc1cc([C@@H]2c3cc4c(cc3[C@H](OC(=O)[C@@H](N)CC(C)C)[C@H]3COC(=O)[C@H]23)OCO4)cc(OC)c1OC | 8.07
COc1cc([C@@H]2c3cc4c(cc3[C@H](OC(=O)[C@@H]3CCCN3C(=O)c3nc(C)c(C)nc3C)[C@H]3COC(=O)[C@H]23)OCO4)cc(OC)c1OC | 6.91
COc1cc([C@@H]2c3cc4c(cc3[C@H](OC(=O)CN(C)C(=O)OC(C)(C)C)[C@H]3COC(=O)[C@H]23)OCO4)cc(OC)c1OC | 6.88
COc1cc([C@@H]2c3cc4c(cc3[C@H](OC(=O)[C@H](C)N)[C@H]3COC(=O)[C@H]23)OCO4)cc(OC)c1OC | 7.73
COc1cc([C@@H]2c3cc4c(cc3[C@@H](O[C@@H]3O[C@@H]5CO[C@@H](C)O[C@H]5[C@H](O)[C@H]3O)[C@H]3COC(=O)[C@H]23)OCO4)cc(OC)c1O [ETOPOSIDE] | 5.33
COc1cc([C@@H]2c3cc4c(cc3[C@H](OC(=O)CN)[C@H]3COC(=O)[C@H]23)OCO4)cc(OC)c1OC | 8.14

###

# Lookup of reported IC50 keyed by entry
System: A549
ASSAY_SUMMARY: Cytotoxicity against human A549 cells assessed as growth inhibition after 72 hrs by MTT assay
Type: functional, cell-based
CONDITION: A549, 72 h
OBSERVED_PROPERTY: IC50 (nM)

SMILES_NOTATION | VALUE_OBSERVED
COc1cc([C@@H]2c3cc4c(cc3[C@H](OC(=O)[C@@H](N)CC(C)C)[C@H]3COC(=O)[C@H]23)OCO4)cc(OC)c1OC | 14.7
COc1cc([C@@H]2c3cc4c(cc3[C@H](OC(=O)[C@@H]3CCCN3C(=O)c3nc(C)c(C)nc3C)[C@H]3COC(=O)[C@H]23)OCO4)cc(OC)c1OC | 80.1
COc1cc([C@@H]2c3cc4c(cc3[C@H](OC(=O)CN(C)C(=O)c3nc(C)c(C)nc3C)[C@H]3COC(=O)[C@H]23)OCO4)cc(OC)c1OC | 20.1
COc1cc([C@@H]2c3cc4c(cc3[C@H](OC(=O)[C@H](CC(C)C)NC(=O)c3nc(C)c(C)nc3C)[C@H]3COC(=O)[C@H]23)OCO4)cc(OC)c1OC | 62.4

###

Recorded pIC50, one value per entry.
Tested on: A549
ASSAY_SUMMARY: Cytotoxicity against human A549 cells assessed as growth inhibition after 72 hrs by MTT assay
Assay type: functional, cell-based
CONDITION: A549, 72 h
pIC50: −log10 of the molar value.
OBSERVED_PROPERTY: pIC50

SMILES_NOTATION | VALUE_OBSERVED
COc1cc([C@@H]2c3cc4c(cc3[C@H](OC(=O)CNC(=O)c3nc(C)c(C)nc3C)[C@H]3COC(=O)[C@H]23)OCO4)cc(OC)c1OC | 8.03
COc1cccc2c1C(=O)c1c(O)c3c(c(O)c1C2=O)C[C@@](O)(C(=O)CO)C[C@@H]3O[C@H]1C[C@H](N)[C@H](O)[C@H](C)O1 | 6.64
CC[C@H](C)[C@H](NC(=O)OC(C)(C)C)C(=O)O[C@H]1c2cc3c(cc2[C@@H](c2cc(OC)c(OC)c(OC)c2)[C@H]2C(=O)OC[C@@H]21)OCO3 | 6.65
COc1cc([C@@H]2c3cc4c(cc3[C@H](OC(=O)[C@H](Cc3ccccc3)NC(=O)OC(C)(C)C)[C@H]3COC(=O)[C@H]23)OCO4)cc(OC)c1OC | 7.52
COc1cc([C@@H]2c3cc4c(cc3[C@H](OC(=O)[C@@H](N)Cc3ccccc3)[C@H]3COC(=O)[C@H]23)OCO4)cc(OC)c1OC | 8.42
COc1cc([C@@H]2c3cc4c(cc3[C@H](OC(=O)[C@H](Cc3ccccc3)NC(=O)c3nc(C)c(C)nc3C)[C@H]3COC(=O)[C@H]23)OCO4)cc(OC)c1OC | 8.09
